ASSAY DETAILS: physchem
MEASUREMENT PARAMETERS: pH 7.2, aqueous buffer
VALUE KIND: solubility
Returns: string containing the number followed by the unit.

[Q] Looking for the measured solubility of `CCN(CC)c1ccc(C(c2ccc(N(CC)CC)cc2)c2ccccc2S(=O)(=O)O)cc1` , can you help?
[A] 500 µM
